measurementTarget: human ether-à-go-go-related gene (hERG) potassium channel (human)
Sequence (Q12809 whole entry, looked up): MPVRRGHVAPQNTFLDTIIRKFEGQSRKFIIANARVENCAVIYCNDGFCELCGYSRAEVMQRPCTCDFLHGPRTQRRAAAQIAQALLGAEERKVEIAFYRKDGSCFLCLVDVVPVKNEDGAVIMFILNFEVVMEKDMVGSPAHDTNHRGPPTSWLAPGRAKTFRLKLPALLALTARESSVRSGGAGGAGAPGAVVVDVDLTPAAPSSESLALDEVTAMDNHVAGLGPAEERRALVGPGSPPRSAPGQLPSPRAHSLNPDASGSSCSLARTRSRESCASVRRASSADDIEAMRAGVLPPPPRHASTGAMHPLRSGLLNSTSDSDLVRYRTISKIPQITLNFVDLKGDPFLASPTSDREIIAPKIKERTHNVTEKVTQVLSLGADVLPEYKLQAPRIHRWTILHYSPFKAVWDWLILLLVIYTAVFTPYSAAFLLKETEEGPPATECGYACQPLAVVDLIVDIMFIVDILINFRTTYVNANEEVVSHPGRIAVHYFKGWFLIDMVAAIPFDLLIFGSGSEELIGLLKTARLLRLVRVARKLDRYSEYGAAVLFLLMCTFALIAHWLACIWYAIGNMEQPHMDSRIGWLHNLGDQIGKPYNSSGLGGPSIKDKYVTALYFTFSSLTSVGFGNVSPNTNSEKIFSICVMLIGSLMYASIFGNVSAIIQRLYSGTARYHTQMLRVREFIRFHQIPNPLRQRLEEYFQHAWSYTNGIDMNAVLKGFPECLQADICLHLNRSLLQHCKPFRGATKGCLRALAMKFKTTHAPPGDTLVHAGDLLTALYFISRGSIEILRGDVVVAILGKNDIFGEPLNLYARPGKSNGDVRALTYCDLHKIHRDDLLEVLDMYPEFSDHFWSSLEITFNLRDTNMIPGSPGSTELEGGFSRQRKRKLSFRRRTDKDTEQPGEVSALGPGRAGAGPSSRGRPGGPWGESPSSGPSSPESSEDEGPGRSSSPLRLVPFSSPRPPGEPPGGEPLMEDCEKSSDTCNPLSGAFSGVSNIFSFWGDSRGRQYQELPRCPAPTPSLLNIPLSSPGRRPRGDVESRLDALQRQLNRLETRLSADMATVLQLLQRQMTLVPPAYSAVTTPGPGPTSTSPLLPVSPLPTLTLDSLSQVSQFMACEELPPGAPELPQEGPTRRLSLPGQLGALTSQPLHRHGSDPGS
testDescription: primary screen, population patch clamp on CHO cells stably expressing hERG; higher = less effect of the substance
Text: Briefly, Chinese hamster ovary (CHO) cells stably expressing the hERG channel were dislodged from tissue culture flasks and dispensed into PPC plates. […] Small molecule effects on hERG current density were quantified by […].
The whole screen tested about 310,000 compounds, of which about 2,200 (0.71%) showed an effect of 50% or more. Effects have a minus sign here. The sample holds strong results, similar compounds and a random draw of the others, so the mix is not that of the screen.
measure: hERG current change (%, negative = inhibition) at 1uM (%)
Enter your answer as a number in %; do not include the unit.

For the compound shown here, CN(C/C=C/c1ccccc1)Cc1cccc2ccccc12.Cl , give the reported hERG current change (%, negative = inhibition) at 1uM.
5.76

For the compound shown here, O=C(c1cc2c(ccc3ccccc32)o1)N1CCCCC1 , give the reported hERG current change (%, negative = inhibition) at 1uM.
14.4

For the compound shown here, C/C(N)=C(/C#N)C(=O)COC(=O)CCSc1ccccc1Cl , give the reported hERG current change (%, negative = inhibition) at 1uM.
12.1

For the compound shown here, COc1cc(CN(C)CCc2ccccc2)ccc1OCc1ccccc1 , give the reported hERG current change (%, negative = inhibition) at 1uM.
-12.2

For the compound shown here, CCc1ccc2oc(C(=O)N3CCN(c4ccccc4OC)CC3)cc(=O)c2c1 , give the reported hERG current change (%, negative = inhibition) at 1uM.
-57.4

For the compound shown here, CCCCc1c(O)nc2sccn2c1=O , give the reported hERG current change (%, negative = inhibition) at 1uM.
5.53

For the compound shown here, CC(C)CNS(=O)(=O)c1ccc(OCC(=O)Nc2ccc3c(c2)OCCO3)cc1 , give the reported hERG current change (%, negative = inhibition) at 1uM.
14.4

For the compound shown here, CCN(CC(=O)NCc1cccs1)C(=O)COc1cccc(C(F)(F)F)c1 , give the reported hERG current change (%, negative = inhibition) at 1uM.
-7.5

For the compound shown here, COc1ccc([N+](=O)[O-])cc1NC(=O)CSCc1ccccc1 , give the reported hERG current change (%, negative = inhibition) at 1uM.
13.5

For the compound shown here, Cc1nc2sccn2c(=O)c1S(=O)(=O)NCc1ccccc1 , give the reported hERG current change (%, negative = inhibition) at 1uM.
9.92

For the compound shown here, Cc1cc(C)cc(N2C(=O)CC(c3ccccc3)CC2=O)c1 , give the reported hERG current change (%, negative = inhibition) at 1uM.
10.3

For the compound shown here, Cc1ccc([N+](=O)[O-])cc1NC(=O)c1ccccc1 , give the reported hERG current change (%, negative = inhibition) at 1uM.
0.0028

For the compound shown here, C=CCOc1ccccc1CNCCc1ccc(S(N)(=O)=O)cc1.Cl , give the reported hERG current change (%, negative = inhibition) at 1uM.
-6.97

For the compound shown here, O=P(O)(CCc1ccccc1)C(O)c1ccccc1 (stereo not shown) , give the reported hERG current change (%, negative = inhibition) at 1uM.
5.09

For the compound shown here, COc1cccc2c1OCC(C(=O)OCc1cccnc1)=C2 , give the reported hERG current change (%, negative = inhibition) at 1uM.
10.4

For the compound shown here, CCc1nnc(NC(=O)C2CCCN2C(=O)Nc2ccc(C)cc2)s1 (stereo not shown) , give the reported hERG current change (%, negative = inhibition) at 1uM.
8.89

For the compound shown here, COc1ccc(CCNC(C)CCc2ccc(OC)cc2)cc1 (stereo not shown) , give the reported hERG current change (%, negative = inhibition) at 1uM.
-2.61

For the compound shown here, COc1cc(CNCCc2ccc(S(N)(=O)=O)cc2)ccc1OCc1ccc(Cl)cc1.Cl , give the reported hERG current change (%, negative = inhibition) at 1uM.
-1.77

For the compound shown here, COc1ccc(CCN(C)Cc2ccc(OC)c(OCc3ccccc3)c2)cc1OC , give the reported hERG current change (%, negative = inhibition) at 1uM.
-77

For the compound shown here, CCN(CC(=O)NCc1cccs1)C(=O)c1ccc(-c2cccc(C(F)(F)F)c2)o1 , give the reported hERG current change (%, negative = inhibition) at 1uM.
-57.4

For the compound shown here, CC(Oc1ccc(Cl)cc1)c1ccnc(N)n1 (stereo not shown) , give the reported hERG current change (%, negative = inhibition) at 1uM.
15.5

For the compound shown here, Cc1ccc(-n2c(N)c(C#N)c(-c3ccc(Cl)cc3)c(C#N)c2=O)cc1 , give the reported hERG current change (%, negative = inhibition) at 1uM.
10.8

For the compound shown here, CCOc1ccccc1NC(=O)N1CCC(C(=O)c2ccc(F)cc2)CC1 , give the reported hERG current change (%, negative = inhibition) at 1uM.
9.5

For the compound shown here, O=C(OCc1cccnc1)C1=Cc2ccccc2OC1 , give the reported hERG current change (%, negative = inhibition) at 1uM.
-73

For the compound shown here, Cc1ccc(Cn2ncc3c(NCCN(C)C)ncnc32)cc1 , give the reported hERG current change (%, negative = inhibition) at 1uM.
1.2

For the compound shown here, CN(C/C=C/c1ccccc1[N+](=O)[O-])Cc1ccccc1 , give the reported hERG current change (%, negative = inhibition) at 1uM.
-8.37

For the compound shown here, COc1ccccc1N1CCN(C(=O)c2cc(=O)c3ccc(C)cc3o2)CC1 , give the reported hERG current change (%, negative = inhibition) at 1uM.
1.21

For the compound shown here, Cc1nc2sccn2c(=O)c1S(=O)(=O)N1CCN(c2ccc(F)cc2)CC1 , give the reported hERG current change (%, negative = inhibition) at 1uM.
-23

For the compound shown here, Cc1ccc(C(=O)N/C(=C\c2cn(S(=O)(=O)N(C)C)c3ccccc23)C(=O)N2CCCC2)cc1 , give the reported hERG current change (%, negative = inhibition) at 1uM.
16

For the compound shown here, COc1ccc(CNCCc2ccc(Cl)cc2Cl)cc1 , give the reported hERG current change (%, negative = inhibition) at 1uM.
13.2

For the compound shown here, COc1ccc(CCN(C)C/C=C/c2ccccc2[N+](=O)[O-])cc1OC , give the reported hERG current change (%, negative = inhibition) at 1uM.
-54.3

For the compound shown here, Cc1nc2sccn2c(=O)c1CCN1CCC(=C(c2ccccc2)c2ccc(F)cc2)CC1 , give the reported hERG current change (%, negative = inhibition) at 1uM.
-78.8

For the compound shown here, COc1ccccc1N1CCN(C(=O)c2cc(=O)c3cc(C)ccc3o2)CC1 , give the reported hERG current change (%, negative = inhibition) at 1uM.
-8.99

For the compound shown here, S=C(NCc1ccncc1)Nc1ccccc1 , give the reported hERG current change (%, negative = inhibition) at 1uM.
7.34

Just for reference, paper PMC4336329 is where these values come from.
